- Test Method Notes: log D7.4 estimation by HPLC-based method
- Type: physicochemical
- Stated Conditions: pH 7.4, HPLC, mean of two calibrations; read-out: logD7.4 (mean)
Readout Kind: chromatographic logD

[[record]]
molecular_string = "CCOC(=O)Nc1ccc(NCc2ccc(F)cc2)cc1N"
readout_kind = "chromatographic logD"
value_measured = 2.1


====

- Test system: TAMH cells
- Test Method Notes: MTT cell viability assay, TAMH cells
- Stated Conditions: TAMH cells, MTT assay, 24 h exposure; 25% reduction of viability
- Procedure: In addition to the activity, basic toxicological properties of the newly synthesized compounds were also investigated by using the 3-(4,5-dimethylthiazol-2-yl)-2,5-diphenyltetrazolium bromide (MTT) cell viability assay on mouse TAMH and human HEP-G2 hepatic cell lines (see Table 2). […] The calculated T/Ccorr. values were plotted against the log(concentration). The LD50 and LD25 values were determined by using GraphPad Prism 6. […]
LD25 overview
Readout Kind: LD25 (µM)

[[record]]
compound = "Cc1cc(N2CCOCC2)nc(N2CCOCC2)c1CNC(=O)c1ccc(F)cc1 [55a]"
censoring_qualifier = "="
value_measured = 22

[[record]]
compound = "Cc1cc(NCc2ccc(F)cc2)nc(N2CCOCC2)c1CNC(=O)OCC(C)C"
censoring_qualifier = "="
value_measured = 52

[[record]]
compound = "Cc1cc(N2CCOCC2)nc(N)c1CNC(=O)Cc1cc(F)cc(F)c1"
censoring_qualifier = ">"
value_measured = 63

[[record]]
compound = "CCCCNC(=O)c1ccc(NCc2ccc(F)cc2)nc1N"
censoring_qualifier = "="
value_measured = 145

[[record]]
compound = "COc1cc(NCc2ccc(F)cc2)ccc1C(=O)NCC(C)C [28a]"
censoring_qualifier = "="
value_measured = 43

[[record]]
compound = "COc1nc(NCc2ccc(F)cc2)cc(C)c1C(=O)NCc1ccc(F)cc1 [36b]"
censoring_qualifier = ">"
value_measured = 63

[[record]]
compound = "CC(C)CNC(=O)c1ccc(NCc2ccc(F)cc2)cc1N"
censoring_qualifier = ">"
value_measured = 125

[[record]]
compound = "Cc1cc(N2CCOCC2)nc(N2CCOCC2)c1CNC(=O)Cc1cc(F)cc(F)c1 [55b]"
censoring_qualifier = "="
value_measured = 24

[[record]]
compound = "CCCCNC(=O)c1c(C)cc(NCc2ccc(F)cc2)nc1OC [36a]"
censoring_qualifier = "="
value_measured = 17

[[record]]
compound = "COc1cc(NCc2ccc(F)cc2)ccc1C(=O)NCc1ccc(F)cc1 [28b]"
censoring_qualifier = ">"
value_measured = 8


====

- Test Method Notes: log D7.4 estimation by HPLC-based method
- Format: physicochemical
- Stated Conditions: HPLC, Phenomenex Luna 5 μm Phenyl-Hexyl column, pH 7.4, estimated by HPLC-based method, pH 7.4; read-out: log D7.4
This section presents molecules with their documented chromatographic logD values.
Readout Kind: chromatographic logD

[[record]]
molecule = "Cc1cc(N2CCOCC2)nc(N2CCOCC2)c1CNC(=O)c1ccc(F)cc1 [55a]"
value_measured = 3.5

[[record]]
molecule = "COc1cc(NCc2ccc(F)cc2)ccc1C(=O)NCC(C)C [28a]"
value_measured = 3.8

[[record]]
molecule = "CC(C)CNC(=O)c1ccc(NCc2ccc(F)cc2)cc1N"
value_measured = 2.7


====

Quick list: LD50 per entry.
- Tested on: TAMH cells
- Test Method Notes: MTT cell viability assay, TAMH cells
- Stated Conditions: TAMH cells, MTT assay, 24 h exposure; 50% reduction of viability
Readout Kind: LD50

[[record]]
compound = "COc1cc(NCc2ccc(F)cc2)ccc1C(=O)NCC(C)C [28a]"
readout_kind = "LD50"
value_measured = ">63 µM"

[[record]]
compound = "CC(C)CNC(=O)c1ccc(NCc2ccc(F)cc2)cc1N"
readout_kind = "LD50"
value_measured = ">125 µM"

[[record]]
compound = "Cc1cc(N2CCOCC2)nc(N2CCOCC2)c1CNC(=O)Cc1cc(F)cc(F)c1 [55b]"
readout_kind = "LD50"
value_measured = ">250 µM"

[[record]]
compound = "COc1cc(NCc2ccc(F)cc2)ccc1C(=O)NCc1ccc(F)cc1 [28b]"
readout_kind = "LD50"
value_measured = ">8 µM"

[[record]]
compound = "CCCNC(=O)c1ccc(NCc2ccc(F)cc2)cc1CC.Cl"
readout_kind = "LD50"
value_measured = ">125 µM"

[[record]]
compound = "COc1nc(NCc2ccc(F)cc2)cc(C)c1C(=O)NCc1ccc(F)cc1 [36b]"
readout_kind = "LD50"
value_measured = ">63 µM"

[[record]]
compound = "CCOC(=O)Nc1ccc(NCc2ccc(F)cc2)nc1N [compound 1, flupirtine, reference compound]"
readout_kind = "LD50"
value_measured = "487 ± 51 µM"

[[record]]
compound = "CCCCNC(=O)c1c(C)cc(NCc2ccc(F)cc2)nc1OC [36a]"
readout_kind = "LD50"
value_measured = ">63 µM"

[[record]]
compound = "Cc1cc(NCc2ccc(F)cc2)nc(N2CCOCC2)c1CNC(=O)OCC(C)C"
readout_kind = "LD50"
value_measured = ">125 µM"

[[record]]
compound = "Cc1cc(N2CCOCC2)nc(N)c1CNC(=O)Cc1cc(F)cc(F)c1"
readout_kind = "LD50"
value_measured = ">63 µM"

[[record]]
compound = "Cc1cc(N2CCOCC2)nc(N2CCOCC2)c1CNC(=O)c1ccc(F)cc1 [55a]"
readout_kind = "LD50"
value_measured = ">31 µM"

[[record]]
compound = "CCCCNC(=O)c1ccc(NCc2ccc(F)cc2)nc1N"
readout_kind = "LD50"
value_measured = "149 ± 7 µM"


====

- Test Method Notes: log D7.4 estimation by HPLC-based method
- Format: physicochemical
- Stated Conditions: HPLC, Phenomenex Luna 5 μm Phenyl-Hexyl column, pH 7.4, HPLC, calibration A2; read-out: logD7.4
Readout Kind: chromatographic logD

[[record]]
molecular_string = "Cc1cc(NCc2ccc(F)cc2)nc(N2CCOCC2)c1CNC(=O)OCC(C)C"
value_measured = 4.75


====

- Target Desc: KV7.2/3 channel (Homo sapiens, UniProt O43525+O43526)
- Sequence (O43526 whole entry): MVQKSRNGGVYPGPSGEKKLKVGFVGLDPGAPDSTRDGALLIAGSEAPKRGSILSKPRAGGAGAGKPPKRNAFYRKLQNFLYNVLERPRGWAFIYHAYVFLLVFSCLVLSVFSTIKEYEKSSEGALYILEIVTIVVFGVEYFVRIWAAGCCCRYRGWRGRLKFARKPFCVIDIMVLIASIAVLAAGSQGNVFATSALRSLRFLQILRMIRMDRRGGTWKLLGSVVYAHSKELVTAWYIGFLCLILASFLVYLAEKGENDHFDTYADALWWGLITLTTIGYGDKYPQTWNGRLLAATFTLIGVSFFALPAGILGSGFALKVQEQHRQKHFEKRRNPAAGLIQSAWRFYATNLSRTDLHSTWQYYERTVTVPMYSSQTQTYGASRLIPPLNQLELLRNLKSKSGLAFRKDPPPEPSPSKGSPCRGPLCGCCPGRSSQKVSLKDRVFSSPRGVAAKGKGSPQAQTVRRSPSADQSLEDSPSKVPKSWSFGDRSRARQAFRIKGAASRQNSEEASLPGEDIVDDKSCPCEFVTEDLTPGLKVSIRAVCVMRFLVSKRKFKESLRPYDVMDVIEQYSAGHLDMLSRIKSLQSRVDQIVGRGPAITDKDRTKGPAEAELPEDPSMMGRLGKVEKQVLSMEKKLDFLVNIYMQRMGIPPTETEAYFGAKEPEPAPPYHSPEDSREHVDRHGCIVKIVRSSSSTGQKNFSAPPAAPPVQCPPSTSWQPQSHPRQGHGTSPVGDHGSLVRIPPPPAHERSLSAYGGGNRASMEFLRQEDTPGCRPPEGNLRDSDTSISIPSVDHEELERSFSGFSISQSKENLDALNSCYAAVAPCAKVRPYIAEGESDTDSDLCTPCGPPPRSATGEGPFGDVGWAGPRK
- Sequence (O43525 whole entry): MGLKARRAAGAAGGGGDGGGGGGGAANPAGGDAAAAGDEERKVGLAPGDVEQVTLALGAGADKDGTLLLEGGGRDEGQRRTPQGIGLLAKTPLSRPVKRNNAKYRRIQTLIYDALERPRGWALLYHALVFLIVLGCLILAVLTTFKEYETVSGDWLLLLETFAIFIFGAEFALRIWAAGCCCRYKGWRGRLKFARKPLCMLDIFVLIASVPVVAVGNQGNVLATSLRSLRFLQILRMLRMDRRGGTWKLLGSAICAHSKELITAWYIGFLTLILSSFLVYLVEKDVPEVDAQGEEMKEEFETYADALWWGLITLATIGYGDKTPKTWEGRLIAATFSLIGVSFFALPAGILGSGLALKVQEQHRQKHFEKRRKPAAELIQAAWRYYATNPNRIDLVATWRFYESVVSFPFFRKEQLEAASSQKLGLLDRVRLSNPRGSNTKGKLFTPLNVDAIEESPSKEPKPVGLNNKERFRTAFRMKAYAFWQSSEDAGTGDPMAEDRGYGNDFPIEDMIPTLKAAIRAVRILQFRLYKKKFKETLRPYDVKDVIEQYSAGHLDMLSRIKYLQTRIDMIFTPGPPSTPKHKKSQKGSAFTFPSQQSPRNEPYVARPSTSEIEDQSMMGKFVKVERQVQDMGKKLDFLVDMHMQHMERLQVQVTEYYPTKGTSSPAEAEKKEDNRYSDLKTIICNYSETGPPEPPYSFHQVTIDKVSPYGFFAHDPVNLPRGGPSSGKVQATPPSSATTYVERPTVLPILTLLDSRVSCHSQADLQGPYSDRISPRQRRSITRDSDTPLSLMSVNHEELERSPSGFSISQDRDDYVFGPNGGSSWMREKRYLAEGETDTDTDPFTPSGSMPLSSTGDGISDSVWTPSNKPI
- Test Method Notes: KV7.2/3 channel opening assay (thallium-sensitive fluorescence)
- Assay type: cell-based
- Stated Conditions: inactive = no channel opening activity detected up to a concentration of 10 μM
Readout Kind: KV7.2/3 channel opening activity (in words)

[[record]]
compound = "CC(C)CNC(=O)c1ccc(NCc2ccc(F)cc2)cc1N [compound 17]"
value_measured = "inactive"

[[record]]
compound = "COc1cc(NCc2ccc(F)cc2)ccc1C(=O)NCC(C)C [28a]"
value_measured = "inactive"

[[record]]
compound = "Cc1cc(N2CCOCC2)nc(N)c1CNC(=O)Cc1cc(F)cc(F)c1 [compound 61]"
value_measured = "inactive"

[[record]]
compound = "Cc1cc(NCc2ccc(F)cc2)nc(N2CCOCC2)c1CNC(=O)OCC(C)C [compound 66]"
value_measured = "inactive"

[[record]]
compound = "CCCCNC(=O)c1ccc(NCc2ccc(F)cc2)nc1N [compound 21]"
value_measured = "inactive"

[[record]]
compound = "Cc1cc(N2CCOCC2)nc(N2CCOCC2)c1CNC(=O)c1ccc(F)cc1 [55a]"
value_measured = "inactive"

[[record]]
compound = "Cc1cc(N2CCOCC2)nc(N2CCOCC2)c1CNC(=O)Cc1cc(F)cc(F)c1 [55b]"
value_measured = "inactive"

[[record]]
compound = "COc1cc(NCc2ccc(F)cc2)ccc1C(=O)NCc1ccc(F)cc1 [28b]"
value_measured = "inactive"


====

- Test Method Notes: log D7.4 estimation by HPLC-based method
- Type: physicochemical
- Stated Conditions: pH 7.4, HPLC, calibration C; read-out: logD7.4
Readout Kind: chromatographic logD

[[record]]
molecule = "CCOC(=O)Nc1ccc(NCc2ccc(F)cc2)cc1N [compound 2, retigabine]"
readout_kind = "chromatographic logD"
value_measured = 2.05


====

- Test Method Notes: log D7.4 estimation by HPLC-based method
- Format: physicochemical
- Stated Conditions: HPLC, Phenomenex Luna 5 μm Phenyl-Hexyl column, pH 7.4, HPLC, mean of two calibrations; read-out: logD7.4 (mean)
Answer N if chromatographic logD is under 4, and Y if it is 4 or more.

[[record]]
compound = "Cc1cc(N2CCOCC2)nc(N)c1CNC(=O)Cc1cc(F)cc(F)c1 [compound 61]"
label = "N"

[[record]]
compound = "Cc1cc(NCc2ccc(F)cc2)nc(N2CCOCC2)c1CNC(=O)OCC(C)C [compound 66]"
label = "Y"

[[record]]
compound = "COc1cc(NCc2ccc(F)cc2)ccc1C(=O)NCC(C)C [28a]"
label = "N"

[[record]]
compound = "CCOC(=O)Nc1ccc(NCc2ccc(F)cc2)nc1N [compound 1, flupirtine, reference compound]"
label = "N"

[[record]]
compound = "Cc1cc(N2CCOCC2)nc(N2CCOCC2)c1CNC(=O)c1ccc(F)cc1 [55a]"
label = "N"

[[record]]
compound = "CCCNC(=O)c1ccc(NCc2ccc(F)cc2)cc1CC.Cl [compound 47]"
label = "N"

